experimentalReadout: IC50 (nM)
Answer format: numeric, nM implied, no suffix.

Task: What value of IC50 on CDK7 (cyclin H) (Homo sapiens (Human), UniProt P50613) does CC(C)N1CCOc2c(F)cc(-c3nc(Nc4ccc(C5CCN(C)CC5)nc4)ncc3F)cc21 have?
Result: 54

Task: Item: CC(C)N1CCOc2c(F)cc(-c3nc(Nc4ccc(N5CCC(N(C)C)CC5)cn4)ncc3F)cc21 Test system: CDK7 (cyclin H) (Homo sapiens (Human), UniProt P50613) Read-out: IC50 Value: ?
Result: 2360

Task: Observed IC50 on CDK7 (cyclin H) (Homo sapiens (Human), UniProt P50613) for CC(C)N1CCOc2c(F)cc(-c3nc(Nc4ccc(N5CCC(N(C)C)CC5)nc4)ncc3F)cc21 , please.
Sequence (P50613 whole entry): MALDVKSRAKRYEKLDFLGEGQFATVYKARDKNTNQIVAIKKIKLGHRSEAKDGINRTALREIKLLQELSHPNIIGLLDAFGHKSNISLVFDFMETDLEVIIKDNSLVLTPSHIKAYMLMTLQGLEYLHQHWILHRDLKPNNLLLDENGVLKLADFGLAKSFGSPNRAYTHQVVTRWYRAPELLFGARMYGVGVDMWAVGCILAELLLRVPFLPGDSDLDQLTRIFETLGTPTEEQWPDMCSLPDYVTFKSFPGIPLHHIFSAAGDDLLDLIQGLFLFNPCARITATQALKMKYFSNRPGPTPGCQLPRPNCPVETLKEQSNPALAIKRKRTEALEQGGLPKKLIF
Sequence (P51946 whole entry partner): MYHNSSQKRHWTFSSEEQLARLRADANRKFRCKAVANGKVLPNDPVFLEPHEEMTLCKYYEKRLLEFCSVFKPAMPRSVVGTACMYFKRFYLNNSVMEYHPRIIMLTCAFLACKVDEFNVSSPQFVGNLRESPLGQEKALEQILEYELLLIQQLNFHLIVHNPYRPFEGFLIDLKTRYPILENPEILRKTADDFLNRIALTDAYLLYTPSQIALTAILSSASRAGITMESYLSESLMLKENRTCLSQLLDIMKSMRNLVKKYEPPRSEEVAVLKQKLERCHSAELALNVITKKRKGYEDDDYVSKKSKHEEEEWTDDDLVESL
Sequence (P51948 whole entry partner): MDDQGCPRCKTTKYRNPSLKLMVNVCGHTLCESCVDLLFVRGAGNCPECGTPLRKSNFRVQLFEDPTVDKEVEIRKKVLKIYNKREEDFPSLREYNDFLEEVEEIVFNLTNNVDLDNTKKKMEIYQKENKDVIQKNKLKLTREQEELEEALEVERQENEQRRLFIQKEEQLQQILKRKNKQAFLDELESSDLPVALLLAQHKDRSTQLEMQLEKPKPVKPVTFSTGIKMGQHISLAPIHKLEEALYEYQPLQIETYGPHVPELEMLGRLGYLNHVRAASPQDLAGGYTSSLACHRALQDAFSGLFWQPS
Result: 163

###

target: PI3Kδ kinase (Homo sapiens (Human)); experiment: PI3Kδ kinase ADP-Glo assay (Reaction Biology Corporation)
Sequence (O00329 whole entry): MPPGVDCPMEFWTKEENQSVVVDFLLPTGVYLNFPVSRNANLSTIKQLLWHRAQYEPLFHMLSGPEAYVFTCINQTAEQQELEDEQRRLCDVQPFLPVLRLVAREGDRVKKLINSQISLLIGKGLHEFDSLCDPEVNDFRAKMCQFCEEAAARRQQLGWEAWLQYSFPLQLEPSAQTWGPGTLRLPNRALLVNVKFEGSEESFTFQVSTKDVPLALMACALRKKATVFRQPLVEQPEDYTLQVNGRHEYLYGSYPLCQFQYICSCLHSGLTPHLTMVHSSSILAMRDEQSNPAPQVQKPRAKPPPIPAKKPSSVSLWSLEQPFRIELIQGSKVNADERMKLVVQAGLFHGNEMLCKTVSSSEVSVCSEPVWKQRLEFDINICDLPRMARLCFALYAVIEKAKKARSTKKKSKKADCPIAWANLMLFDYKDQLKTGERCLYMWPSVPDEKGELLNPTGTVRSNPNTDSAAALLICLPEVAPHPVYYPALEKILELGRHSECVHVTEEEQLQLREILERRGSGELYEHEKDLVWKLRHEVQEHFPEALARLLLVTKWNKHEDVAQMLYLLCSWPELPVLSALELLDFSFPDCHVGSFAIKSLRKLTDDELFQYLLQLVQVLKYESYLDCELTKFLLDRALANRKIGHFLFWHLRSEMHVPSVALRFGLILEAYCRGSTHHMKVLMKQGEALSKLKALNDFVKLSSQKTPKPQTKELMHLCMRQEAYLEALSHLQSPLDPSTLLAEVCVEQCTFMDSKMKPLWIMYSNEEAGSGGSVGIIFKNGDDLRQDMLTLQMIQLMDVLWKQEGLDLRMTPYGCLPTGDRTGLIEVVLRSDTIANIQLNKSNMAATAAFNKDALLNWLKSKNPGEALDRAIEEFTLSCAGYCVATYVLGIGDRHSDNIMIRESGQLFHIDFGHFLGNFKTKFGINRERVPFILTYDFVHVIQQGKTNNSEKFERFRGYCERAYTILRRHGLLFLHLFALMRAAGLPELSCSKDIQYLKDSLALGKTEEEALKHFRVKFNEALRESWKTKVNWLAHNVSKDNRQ
Sequence (P27986 whole entry partner): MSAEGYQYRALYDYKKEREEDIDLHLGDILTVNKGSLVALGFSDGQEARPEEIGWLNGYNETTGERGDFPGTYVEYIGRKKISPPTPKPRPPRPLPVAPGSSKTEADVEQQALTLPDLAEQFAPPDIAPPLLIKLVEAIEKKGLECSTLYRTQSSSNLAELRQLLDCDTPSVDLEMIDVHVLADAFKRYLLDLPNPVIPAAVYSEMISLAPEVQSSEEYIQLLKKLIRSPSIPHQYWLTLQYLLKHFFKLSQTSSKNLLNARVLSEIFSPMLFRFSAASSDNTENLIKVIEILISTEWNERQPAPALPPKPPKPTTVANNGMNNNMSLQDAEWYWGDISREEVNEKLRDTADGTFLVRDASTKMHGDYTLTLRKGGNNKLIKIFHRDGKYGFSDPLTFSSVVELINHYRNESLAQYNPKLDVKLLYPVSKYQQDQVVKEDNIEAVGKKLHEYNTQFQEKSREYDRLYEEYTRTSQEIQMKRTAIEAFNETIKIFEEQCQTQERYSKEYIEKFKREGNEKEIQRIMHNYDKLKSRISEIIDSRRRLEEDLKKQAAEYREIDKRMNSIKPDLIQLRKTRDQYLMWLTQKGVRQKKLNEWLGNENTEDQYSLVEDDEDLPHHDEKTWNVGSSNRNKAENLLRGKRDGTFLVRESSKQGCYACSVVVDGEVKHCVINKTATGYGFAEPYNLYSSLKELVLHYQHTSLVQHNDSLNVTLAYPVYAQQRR
experimentalReadout: pIC50
In textbook form, pIC50 equals minus log to base ten of the concentration in mol/L.

Task: Which pIC50 is listed for CC(C)N1CCOc2c(F)cc(-c3nc(Nc4ccc(N5CCN(C)CC5=O)cn4)ncc3F)cc21 ?
Result: 4.54

###

test system: A549; test: Cancer cell proliferation assay, single agent; format: cell-based; conditions: Homo sapiens; A549 cells; treated for 24-168 hours; read-out: IC50 (nM) A549
experimentalReadout: IC50 (nM)
Reply numerically in nM, unit not repeated.

Task: Fill blank: measured IC50 of the molecule CC(C)N1CCOc2c(F)cc(-c3nc(Nc4ccc(N5CCC(N(C)C)CC5)cn4)ncc3F)cc21 is ____.
Result: 390

Task: I would be grateful if you could share the reported IC50 for CC(C)N1CCOc2c(F)cc(-c3nc(Nc4ccc(C5CCN(C)CC5)cn4)ncc3F)cc21 .
Result: 465

###

Below are pIC50 values recorded for CDK6 (Homo sapiens (Human)).
Would you please state pIC50, meaning minus log10 of the concentration in mol/L, as a bare number?

Task: Given the entry CC1CN(C(C)C)c2cc(-c3nc(Nc4ccc(N5CCNCC5)c(F)c4)ncc3F)cc(F)c2O1 (stereo not drawn) [Compound 32] , report its measured pIC50.
Result: 7.68

Task: Which pIC50 is reported for this molecule? CCN1CCN(Cc2ccc(Nc3ncc(F)c(-c4cc(F)c5c(c4)N(C4CCC(N)CC4)CCO5)n3)nc2)CC1 (stereo not drawn) [Compound 9]
Result: 6.76

Task: Returns the measured pIC50 for the input molecule. Input: CC(C)N1CCOc2c(F)cc(-c3nc(Nc4ccc(N5CCS(=O)(=O)CC5)c(F)c4)ncc3F)cc21 [Compound 465]
Result: 6.91

Task: I am curious: what pIC50 value has been reported for CC(C)N1CCOc2c(F)cc(-c3nc(Nc4ccc(N5CCC(CN)CC5)cn4)ncc3F)cc21 [Compound 518] ?
Result: 7.55

Task: // query pIC50 value for entry CC(C)N1CCOc2c(F)cc(-c3nc(Nc4ccc(C(=O)N5CCC(N(C)C)CC5)c(F)c4)ncc3F)cc21 [Compound 463]
Result: 8.46

Task: Any idea what pIC50 was measured for CC(C)N1C(=O)COc2c(F)cc(-c3nc(Nc4ccc(N5CCNCC5)cn4)ncc3F)cc21 [Compound 2] ?
Result: 8.16

Task: // query pIC50 value for entry CC(C)N1CCOc2c(Cl)cc(-c3nc(Nc4ccc(N5CCNCC5)c(F)c4)ncc3Cl)cc21 [Compound 52]
Result: 6.70

Task: Fill in the blank: the reported pIC50 of Cc1nc(Nc2ncc(F)c(-c3cc(F)c4c(c3)N(C(C)C)CCO4)n2)ccc1C1CCN(C)CC1 [Compound 503] is ____.
Result: 7.74

Task: Please give the measured pIC50 for this molecule: CCCc1nc(Nc2ncc(F)c(-c3cc(F)c4c(c3)N(C(C)C)CCO4)n2)ccc1C1CCN(C)CC1 [Compound 848]
Result: 6.96

Task: I am curious: what pIC50 value has been reported for Fc1cnc(Nc2ccc3c(n2)CCNC3)nc1-c1cc(F)c2c(c1)N(C1CCC1)CCO2 [Compound 482] ?
Result: 7.80

Task: Report pIC50 for CCCN1CCOc2c(F)cc(-c3nc(Nc4ccc(N5CCC(N(C)C)CC5)c(F)c4)ncc3F)cc21 [Compound 468] please.
Result: 8.10

Task: Quick one: pIC50 for Fc1cnc(Nc2ccc3c(n2)CCNC3)nc1-c1cc(F)c2c(c1)N(C1CCCC1)CCO2 [Compound 509] ?
Result: 8.00
